# Test system: SK-MEL-28 melanoma
# procedure_summary: NCI tumour cell line growth inhibition, 48 h
reported_endpoint: GI50

Past entries and their recorded results:
> print(dat)
                                   compound  reported.endpoint  meas.value
1  CC1=CSC2=NC(c3ccc(Cl)c(Cl)c3)=CC(c3ccc(Cl)cc3)N12 (stereo unspecified)               GI50    > 100 µM
2  O=C(Nc1ccccc1C(F)(F)F)c1cccc(NC2=C(Cl)C(=O)N(Cc3ccccc3)C2=O)c1               GI50   > 90.2 µM
3  O=c1ccn(C2OC(CO)C(O)C2O)c(=O)[nH]1 (stereo unspecified)               GI50   > 1000 µM

Entry under test: CCCCCCC/C=C/[C@H]1O[C@]23C(=O)C[C@@]4(C[C@@H](OC5OC(CO)C(O)C(O)C5O)C[C@@H]4[C@H]2C=C1C)OC3=O (stereo partly specified) . Its GI50 was 5.05 µM

Entry under test: `Nc1c(C(=O)c2ccccc2)sc2nc(-c3cccs3)ccc12` . Its GI50 was 1.49 µM

Entry under test: `CC(C)c1ccc(Cc2cnc(NC(=O)c3cc(Br)cs3)s2)cc1` . Its GI50 was 5.41 µM

Entry under test: `COc1cc([C@H](C)c2ccc3ccccc3c2)cc(OC)c1OC` . Its GI50 was 5.25 µM

Entry under test: `COc1cc2nc(-c3ccc(C(F)(F)F)cc3)cc(OCCCN3CCOCC3)c2cc1OC` . Its GI50 was 1.44 µM
